These data points were gathered from ChEMBL document CHEMBL1123814.

Tested on: Escherichia coli
procedure details: Minimum inhibitory concentration against 30 strains of Escherichia coli
Type: functional
Catalogue of MIC70 values

| molecule | MIC70 |
| --- | --- |
| CC1(C)S[C@@H]2[C@H](NC(=O)[C@H](N)c3ccccc3)C(=O)N2[C@H]1C(=O)O.CC1(C)[C@H](C(=O)O)N2C(=O)C[C@H]2S1(=O)=O | 100 µg/mL |
| CCN1CCN(C(=O)N[C@@H](C(=O)N[C@@H]2C(=O)N3[C@@H]2SC(C)(C)[C@@H]3C(=O)O)c2ccccc2)C(=O)C1=O | 200 µg/mL |
| CC1(C)S[C@@H]2[C@H](NC(=O)[C@H](N)c3ccccc3)C(=O)N2[C@H]1C(=O)O | >400 µg/mL |
| CC1(C)[C@H](C(=O)O)N2C(=O)C[C@H]2S1(=O)=O.CCN1CCN(C(=O)N[C@@H](C(=O)N[C@@H]2C(=O)N3[C@@H]2SC(C)(C)[C@@H]3C(=O)O)c2ccccc2)C(=O)C1=O | 25 µg/mL |
| CC1=C(C(=O)O)N2C(=O)[C@@H](NC(=O)[C@H](N)c3ccccc3)[C@H]2SC1 [CEPHALEXIN ANHYDROUS] | 100 µg/mL |
| CC1(C)S[C@@H]2[C@H](/N=C/N3CCCCCC3)C(=O)N2[C@H]1C(=O)O.CC1(C)[C@H](C(=O)O)N2C(=O)C[C@H]2S1(=O)=O | 0.39 µg/mL |
| CC1(C)S[C@@H]2[C@H](/N=C/N3CCCCCC3)C(=O)N2[C@H]1C(=O)O | 12.5 µg/mL |
